Origin of the recorded values: patent US20200385371A1

assay system: WDR5 (Homo sapiens, UniProt P61964)
assay explanation: Surface Plasmon Resonance (SPR) assay
Type: binding
Set-up: Full length WDR5 with an N-terminal His tag and C-terminal AviTag; His tag (N); made in house; host or cells: E. coli
measurement parameters: read-out: SPR Kd
Doc: threshold 3 nM (exclusive). Items with Kd beneath it return criterion met; others return criterion not met.

Here's what some known entries look like.
{"columns": ["structure smiles", "classification"],
 "data": [
  ["C[C@@H]1CN(c2cc(F)c(-c3cnc(N(C)C)nc3)c(F)c2NC(=O)c2c[nH]c(=O)cc2C(F)(F)F)C[C@H](C)N1C", "criterion met"],
  ["C[C@@H]1CN(c2ncc(-c3c(F)cc(N4CCN(C)[C@@H](C)C4)c(NC(=O)c4ccc(F)cc4C(F)F)c3F)cn2)C[C@@H](C)O1", "criterion met"],
  ["CC(C)OC(=O)N1CCC=C(c2c(F)cc(N3CCN(C)[C@@H](C)C3)c(NC(=O)c3c[nH]c(=O)cc3C(F)F)c2F)C1", "criterion not met"],
  ["C[C@@H]1CN(c2cc(F)c(-c3ccc(OC4CCOCC4)nc3)c(F)c2NC(=O)c2c[nH]c(=O)cc2C(F)(F)F)C[C@H](C)N1C", "criterion met"],
  ["C[C@@H]1CN(c2ncc(-c3c(F)cc(N4C[C@@H](C)N(C)[C@@H](C)C4)c(NC(=O)c4c[nH]c(=O)cc4C(F)F)c3F)cn2)CCO1", "criterion met"]
]}

Challenge: Is the reported Kd for C[C@H]1CN(c2cc(F)c(C3=CCN(c4ccnc(C#N)n4)C3)c(F)c2NC(=O)c2c[nH]c(=O)cc2C(F)(F)F)CCN1C strictly below 3 nM?
Response given: criterion met

Challenge: Is the reported Kd for COc1cc(N2CC=C(c3c(F)cc(N4C[C@@H](C)N(C)[C@@H](C)C4)c(NC(=O)c4c[nH]c(=O)cc4C(F)(F)F)c3F)CC2)ncn1 strictly below 3 nM?
Response given: criterion met

Challenge: Is the reported Kd for CC(C)OC(=O)N1CCC=C(c2c(F)cc(N3C[C@@H](C)N(C)[C@@H](C)C3)c(NC(=O)c3c[nH]c(=O)cc3C(F)F)c2F)C1 strictly below 3 nM?
Response given: criterion met

Challenge: Is the reported Kd for COc1cnc(N2CC=C(c3c(F)cc(N4CCN(C)[C@@H](C)C4)c(NC(=O)c4c[nH]c(=O)cc4C(F)(F)F)c3F)C2)nc1 strictly below 3 nM?
Response given: criterion met

Challenge: Is the reported Kd for C[C@@H]1CN(c2cc(F)c(-c3ccnc(OCC4CC4)c3)c(F)c2NC(=O)c2c[nH]c(=O)cc2C(F)(F)F)C[C@H](C)N1C strictly below 3 nM?
Response given: criterion not met

Challenge: Is the reported Kd for Cc1nc(C(=O)N2CC=C(c3c(F)cc(N4CCN(C)[C@@H](C)C4)c(NC(=O)c4c[nH]c(=O)cc4C(F)F)c3F)CC2)cs1 strictly below 3 nM?
Response given: criterion met

Challenge: Is the reported Kd for C[C@@H]1CN(c2cc(F)c(C3=CCCN(c4ncc(F)cn4)C3)c(F)c2NC(=O)c2c[nH]c(=O)cc2C(F)(F)F)C[C@H](C)N1C strictly below 3 nM?
Response given: criterion met

----------
This listing pairs molecules with measured Kd.
assay system: WDR5 (Homo sapiens)
assay explanation: Surface Plasmon Resonance (SPR) assay
Assay type: binding
Set-up: Full length WDR5 with an N-terminal His tag and C-terminal AviTag; His tag (N); made in house; host or cells: E. coli
measurement parameters: read-out: SPR Kd
Express the result in nM but write the number alone.

{"columns": ["structure smiles", "unit text", "Kd"],
 "data": [
  ["C[C@H]1CN(c2cc(F)c(-c3ccc(N4CCOCC4)nc3)c(F)c2NC(=O)c2ccc(F)cc2C(F)F)CCN1C", "nM", 2.51],
  ["COc1cc(N2CCC=C(c3c(F)cc(N4CCN(C)[C@@H](C)C4)c(NC(=O)c4c[nH]c(=O)cc4C(F)F)c3F)C2)ncn1", "nM", 1.67],
  ["COc1cc(N2CC=C(c3c(F)cc(N4CCN(C)[C@@H](C)C4)c(NC(=O)c4c[nH]c(=O)cc4C(F)(F)F)c3F)C2)ncn1", "nM", 1.8],
  ["C[C@H]1CN(c2cc(F)c(C3=CCN(c4ccnc(C#N)n4)C3)c(F)c2NC(=O)c2c[nH]c(=O)cc2C(F)F)CCN1C", "nM", 0.93],
  ["COc1cc(N2CC=C(c3c(F)cc(N4CCN(C)[C@@H](C)C4)c(NC(=O)c4c[nH]c(=O)cc4C(F)F)c3F)C2)ncn1", "nM", 2.12]
]}

As a next step, examine the molecule that follows.
Challenge: Supply recorded Kd for COc1cnc(N2CC=C(c3c(F)cc(N4CCN(C)[C@@H](C)C4)c(NC(=O)c4c[nH]c(=O)cc4C(F)F)c3F)CC2)nc1 here.
Response given: 1.49
